Provide the recorded half-life for the entries that follow.
- protocol_description: Half life in CD1 mouse at 3.0 mg/kg, iv
- Format: ADME, organism-based
- Parameters: dose 3 mg/kg, route intravenous
- conditions_used: in vivo
Give bare numbers, in min.

Below are some compounds; for each one, tell me its half-life.
1. NC(=O)c1cccc2[nH]c(-c3ccc(-c4ncc[nH]4)cc3)nc12
2. NC(=O)c1cccc2[nH]c(-c3ccc(-c4nnco4)cc3)nc12
3. NC(=O)c1cccc2[nH]c(-c3ccc(-c4cccnc4)cc3)nc12
4. NC(=O)c1cccc2[nH]c(-c3ccc(-c4ccccn4)cc3)nc12
5. NC(=O)c1cccc2[nH]c(-c3ccc(-c4ccncc4)cc3)nc12
6. NC(=O)c1cccc2[nH]c(-c3ccc(-c4cnco4)cc3)nc12

[reply]
1: 33.6; 2: 21.6; 3: 34.8; 4: 37.2; 5: 24; 6: 58.2
